- subject.of.test: 14-3-3τ (UniProt P27348)
- Sequence (P27348 whole entry): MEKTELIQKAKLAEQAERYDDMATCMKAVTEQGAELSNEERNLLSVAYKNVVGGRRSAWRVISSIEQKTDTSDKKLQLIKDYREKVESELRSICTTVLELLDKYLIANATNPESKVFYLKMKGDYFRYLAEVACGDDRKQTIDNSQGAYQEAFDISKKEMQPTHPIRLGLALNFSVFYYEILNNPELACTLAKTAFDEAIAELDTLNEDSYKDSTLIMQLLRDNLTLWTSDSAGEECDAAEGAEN
- method.description: cell-based or functional assay
measurement.type: PKA-induced fluorescence change; Chlorazol Black E 25x (fold)

[
  {
    "substance": "P2, Ac-GRTGRRDap(Pyr)SYP-amide, serine-phosphorylated by PKA in the assay (peptide)",
    "units.label": "fold",
    "result.value": 0.6
  }
]

A = phosphorylated P5 peptide AcDap(Pyr)RTGRRFS(PO3 2-)YP-amide
B = P4, Ac-GRDap(Pyr)GRRFSYP-amide, serine-phosphorylated by PKA in the assay (peptide)
C = P3, Ac-GRTDap(Pyr)RRFSYP-amide, serine-phosphorylated by PKA in the assay (peptide)
Query: Form: Sort by [PKA-induced fluorescence change; Chlorazol Black E 25x] Order [ ascending ] Sort the labels as requested; that list is your answer.
Response: A, B, C
(A: 0.21 fold, B: 0.55 fold, C: 0.92 fold)

---

- subject.of.test: 14-3-3τ (UniProt P27348)
- method.description: cell-based or functional assay
measurement.type: % Fluorescence Enhancement on phosphorylation, no quenching dye (%)

Past entries and their recorded results:
[
  {
    "substance": "P4, Ac-GRDap(Pyr)GRRFSYP-amide, serine-phosphorylated by PKA in the assay (peptide)",
    "subject.of.test": "14-3-3τ (UniProt P27348)",
    "result.value": 40
  },
  {
    "substance": "P2, Ac-GRTGRRDap(Pyr)SYP-amide, serine-phosphorylated by PKA in the assay (peptide)",
    "subject.of.test": "14-3-3τ (UniProt P27348)",
    "result.value": 51
  }
]

A = phosphorylated P5 peptide AcDap(Pyr)RTGRRFS(PO3 2-)YP-amide
B = P3, Ac-GRTDap(Pyr)RRFSYP-amide, serine-phosphorylated by PKA in the assay (peptide)
Query: So which one has the bigger % Fluorescence Enhancement on phosphorylation, no quenching dye here, A or B ? Your answer should be the label of the entry you select.
Response: A
(A: 64%, B: 19%)

---

- subject.of.test: 14-3-3τ (UniProt P27348)
- method.description: cell-based or functional assay
measurement.type: PKA-induced fluorescence change; Evans Blue 5x (fold)

[
  {
    "substance": "P4, Ac-GRDap(Pyr)GRRFSYP-amide, serine-phosphorylated by PKA in the assay (peptide)",
    "subject.of.test": "14-3-3τ (UniProt P27348)",
    "units.label": "fold",
    "result.value": 0.98
  }
]

P = phosphorylated P5 peptide AcDap(Pyr)RTGRRFS(PO3 2-)YP-amide
Q = P2, Ac-GRTGRRDap(Pyr)SYP-amide, serine-phosphorylated by PKA in the assay (peptide)
Query: When the recorded PKA-induced fluorescence change; Evans Blue 5x values are compared, which is smaller: that of P or that of Q ? In your reply, give the label of the chosen option.
Response: P
(P: 1.33 fold, Q: 1.92 fold)

---

- subject.of.test: 14-3-3τ (UniProt P27348)
- method.description: cell-based or functional assay
measurement.type: PKA-induced fluorescence change; Alizarin Red 50x (fold)

[
  {
    "substance": "P3, Ac-GRTDap(Pyr)RRFSYP-amide, serine-phosphorylated by PKA in the assay (peptide)",
    "result.value": 1.05
  },
  {
    "substance": "phosphorylated P5 peptide AcDap(Pyr)RTGRRFS(PO3 2-)YP-amide",
    "result.value": 1.5
  },
  {
    "substance": "P2, Ac-GRTGRRDap(Pyr)SYP-amide, serine-phosphorylated by PKA in the assay (peptide)",
    "result.value": 1.3
  },
  {
    "substance": "P4, Ac-GRDap(Pyr)GRRFSYP-amide, serine-phosphorylated by PKA in the assay (peptide)",
    "result.value": 1.07
  }
]

---

- subject.of.test: 14-3-3τ (UniProt P27348)
- method.description: cell-based or functional assay
measurement.type: PKA-induced fluorescence change; Evans Blue 10x (fold)

// below: answered substances
[
  {
    "substance": "P4, Ac-GRDap(Pyr)GRRFSYP-amide, serine-phosphorylated by PKA in the assay (peptide)",
    "result.value": 0.91
  },
  {
    "substance": "P3, Ac-GRTDap(Pyr)RRFSYP-amide, serine-phosphorylated by PKA in the assay (peptide)",
    "result.value": 1.06
  }
]

1 = P2, Ac-GRTGRRDap(Pyr)SYP-amide, serine-phosphorylated by PKA in the assay (peptide)
2 = phosphorylated P5 peptide AcDap(Pyr)RTGRRFS(PO3 2-)YP-amide
Query: Select one: 1 or 2 . Criterion: greater recorded PKA-induced fluorescence change; Evans Blue 10x. In your reply, give the label of the chosen option.
Response: 1

---

- subject.of.test: 14-3-3τ (UniProt P27348)
- method.description: cell-based or functional assay
measurement.type: PKA-induced fluorescence change; Tartrazine 5x (fold)

[
  {
    "substance": "phosphorylated P5 peptide AcDap(Pyr)RTGRRFS(PO3 2-)YP-amide",
    "result.value": 1.43
  },
  {
    "substance": "P3, Ac-GRTDap(Pyr)RRFSYP-amide, serine-phosphorylated by PKA in the assay (peptide)",
    "result.value": 1.19
  },
  {
    "substance": "P4, Ac-GRDap(Pyr)GRRFSYP-amide, serine-phosphorylated by PKA in the assay (peptide)",
    "result.value": 1.28
  },
  {
    "substance": "P2, Ac-GRTGRRDap(Pyr)SYP-amide, serine-phosphorylated by PKA in the assay (peptide)",
    "result.value": 1.41
  }
]

---

- subject.of.test: 14-3-3τ (UniProt P27348)
- method.description: cell-based or functional assay
measurement.type: PKA-induced fluorescence change; Trypan Blue 5x (fold)

[
  {
    "substance": "P4, Ac-GRDap(Pyr)GRRFSYP-amide, serine-phosphorylated by PKA in the assay (peptide)",
    "units.label": "fold",
    "result.value": 3.03
  }
]

A = phosphorylated P5 peptide AcDap(Pyr)RTGRRFS(PO3 2-)YP-amide
B = P3, Ac-GRTDap(Pyr)RRFSYP-amide, serine-phosphorylated by PKA in the assay (peptide)
Query: When A and B are compared, which has the higher number for PKA-induced fluorescence change; Trypan Blue 5x? Answer format: the label of the selected item.
Response: A

---

- subject.of.test: 14-3-3τ (UniProt P27348)
- method.description: cell-based or functional assay
measurement.type: PKA-induced fluorescence change; Reactive Blue 2 10x (fold)

[
  {
    "substance": "P3, Ac-GRTDap(Pyr)RRFSYP-amide, serine-phosphorylated by PKA in the assay (peptide)",
    "result.value": 2.29
  },
  {
    "substance": "P2, Ac-GRTGRRDap(Pyr)SYP-amide, serine-phosphorylated by PKA in the assay (peptide)",
    "result.value": 2.08
  }
]

1 = phosphorylated P5 peptide AcDap(Pyr)RTGRRFS(PO3 2-)YP-amide
2 = P4, Ac-GRDap(Pyr)GRRFSYP-amide, serine-phosphorylated by PKA in the assay (peptide)
Query: Short answer wanted: higher PKA-induced fluorescence change; Reactive Blue 2 10x, 1 or 2 ? Pick one; state its label.
Response: 1

---

- subject.of.test: 14-3-3τ (UniProt P27348)
- method.description: cell-based or functional assay
measurement.type: PKA-induced fluorescence change; Ponceau S 10x (fold)

[
  {
    "substance": "P3, Ac-GRTDap(Pyr)RRFSYP-amide, serine-phosphorylated by PKA in the assay (peptide)",
    "result.value": 2.26
  },
  {
    "substance": "phosphorylated P5 peptide AcDap(Pyr)RTGRRFS(PO3 2-)YP-amide",
    "result.value": 3.3
  },
  {
    "substance": "P2, Ac-GRTGRRDap(Pyr)SYP-amide, serine-phosphorylated by PKA in the assay (peptide)",
    "result.value": 1.92
  },
  {
    "substance": "P4, Ac-GRDap(Pyr)GRRFSYP-amide, serine-phosphorylated by PKA in the assay (peptide)",
    "result.value": 2.63
  }
]

---

- subject.of.test: 14-3-3τ (UniProt P27348)
- method.description: cell-based or functional assay
measurement.type: PKA-induced fluorescence change; Trypan Blue 25x (fold)

[
  {
    "substance": "P4, Ac-GRDap(Pyr)GRRFSYP-amide, serine-phosphorylated by PKA in the assay (peptide)",
    "result.value": 1.72
  },
  {
    "substance": "P2, Ac-GRTGRRDap(Pyr)SYP-amide, serine-phosphorylated by PKA in the assay (peptide)",
    "result.value": 5.11
  }
]

1 = P3, Ac-GRTDap(Pyr)RRFSYP-amide, serine-phosphorylated by PKA in the assay (peptide)
2 = phosphorylated P5 peptide AcDap(Pyr)RTGRRFS(PO3 2-)YP-amide
Query: Smaller PKA-induced fluorescence change; Trypan Blue 25x value? Options are 1 and 2 Reply briefly: the label of your chosen item.
Response: 1
(1: 1.91 fold, 2: 3.61 fold)

These entries and their values trace back to patent US20080318246A1.
